tested on: NCI-H69; experiment: In vitro cytotoxicity of toxin compounds (Example 12, Table 4); assay type: cell-based; details: Homo sapiens
# Lookup of reported IC50 keyed by entry
Write the numeric value and follow it with the unit.

Before answering, review these 2 worked examples.
Compound	IC50
COC(=O)C[C@@H]1C[C@@]2(CO2)[C@H](O)[C@@H](/C=C/C(C)=C/C[C@@H]2O[C@H](C)[C@H](NC(=O)/C=C\C(C)OC(=O)c3ccc(F)cc3)C[C@@H]2C)O1 (stereo partly drawn) [Compound 2]	0.96 nM
COC(=O)C[C@@H]1C[C@@]2(CO2)[C@H](O)[C@@H](/C=C/C(C)=C/C[C@@H]2O[C@H](C)[C@H](NC(=O)/C=C\C(C)c3noc(C)n3)C[C@@H]2C)O1 (stereo partly drawn) [Compound 6]	0.21 nM

Please find the next compound below.
Task: What value of measured IC50 is listed for COC(=O)C[C@@H]1C[C@@]2(CO2)[C@H](O)[C@@H](/C=C/C(C)=C/C[C@@H]2O[C@H](C)[C@H](NC(=O)/C=C\C(C)c3ccon3)C[C@@H]2C)O1 (stereo partly drawn) [Compound 4] ?
Output: 0.63 nM
